Reported hERG current change (%, negative = inhibition) at 10uM values are given for each entry in this list.
assayed target: human ether-à-go-go-related gene (hERG) potassium channel (human, UniProt Q12809);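 note: peak tail current of the secondary pulse compared with the same well before compound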
Sequence (Q12809 whole entry, looked up): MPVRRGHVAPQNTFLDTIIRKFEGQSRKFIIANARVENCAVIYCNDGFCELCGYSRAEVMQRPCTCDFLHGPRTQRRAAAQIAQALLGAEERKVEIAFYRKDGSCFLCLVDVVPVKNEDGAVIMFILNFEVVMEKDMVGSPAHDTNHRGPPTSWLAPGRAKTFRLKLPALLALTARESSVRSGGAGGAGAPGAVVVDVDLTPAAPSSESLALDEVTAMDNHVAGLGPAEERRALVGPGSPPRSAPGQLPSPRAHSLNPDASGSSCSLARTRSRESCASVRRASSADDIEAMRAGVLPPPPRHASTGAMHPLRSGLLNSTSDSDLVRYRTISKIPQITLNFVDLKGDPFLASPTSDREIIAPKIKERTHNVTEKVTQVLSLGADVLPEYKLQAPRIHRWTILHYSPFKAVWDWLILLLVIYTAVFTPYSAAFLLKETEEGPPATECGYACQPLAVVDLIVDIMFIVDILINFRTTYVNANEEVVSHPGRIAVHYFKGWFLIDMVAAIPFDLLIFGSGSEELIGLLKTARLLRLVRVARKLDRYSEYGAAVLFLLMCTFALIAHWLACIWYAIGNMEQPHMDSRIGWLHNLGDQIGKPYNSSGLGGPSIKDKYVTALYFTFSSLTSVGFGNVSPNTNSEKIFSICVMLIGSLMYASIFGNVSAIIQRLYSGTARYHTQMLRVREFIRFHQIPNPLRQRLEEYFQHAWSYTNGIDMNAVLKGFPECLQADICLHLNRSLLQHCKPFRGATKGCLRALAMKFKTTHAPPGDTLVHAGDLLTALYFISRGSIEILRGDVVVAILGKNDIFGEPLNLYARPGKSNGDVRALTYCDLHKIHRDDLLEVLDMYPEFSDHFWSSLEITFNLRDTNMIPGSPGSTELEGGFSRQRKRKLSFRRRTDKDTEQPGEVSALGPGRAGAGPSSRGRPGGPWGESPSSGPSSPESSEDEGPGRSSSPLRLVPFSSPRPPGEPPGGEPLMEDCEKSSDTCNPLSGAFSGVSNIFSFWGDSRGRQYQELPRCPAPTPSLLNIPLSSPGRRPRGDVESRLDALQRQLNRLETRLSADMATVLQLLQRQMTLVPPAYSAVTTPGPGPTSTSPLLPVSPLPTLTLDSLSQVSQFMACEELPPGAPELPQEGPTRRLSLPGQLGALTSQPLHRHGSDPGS
assay explanation: primary screen, population patch clamp on CHO cells stably expressing hERG; higher = less effect of the substance
Out of some 310,000 compounds screened, about 14,000 (4.5%) showed an effect of 50% or more. The effect is printed as a negative number. For the sample, strong results were picked, then their nearest neighbours and some compounds at random.
Numbers only; they are read as %.

Some molecules with recorded hERG current change (%, negative = inhibition) at 10uM:
{"columns": ["smiles input", "unit tag", "result value"],
 "data": [
  ["CCn1c(=O)c(C(=O)CC#N)c(N)n(Cc2ccccc2)c1=O", "%", -4.73],
  ["Cc1oc(-c2cccc(Cl)c2)nc1CN1CCC(C(=O)NCCCN2CCCC2=O)CC1", "%", -38],
  ["CCc1ccc(-c2nc(CN3CCC(C(=O)NCc4ccccc4OC)CC3)c(C)o2)cc1", "%", -68.4],
  ["CCOc1ccc(CN(C)CC(=O)c2c(N)n(Cc3ccccc3)c(=O)n(CC)c2=O)cc1OC", "%", -75.5]
]}

Entry CN(C)CC(=O)c1c(N)n(Cc2ccccc2)c(=O)n(C)c1=O has what hERG current change (%, negative = inhibition) at 10uM?
-7.58

For COc1ccccc1CNC(=O)C1CCN(c2nc3ccccc3o2)CC1 then?
-9.09

For COc1ccccc1CNC(=O)C1CCN(Cc2nc(-c3cccc(Cl)c3)oc2C)CC1 then?
-78

For COC(=O)Nc1nn(-c2ccc(C)cc2)c(=O)c(C#N)c1C then?
11.2

For CCN(CC)CC(=O)c1c(N)n(Cc2ccccc2)c(=O)n(C)c1=O then?
-2.27

---

assayed target: human ether-à-go-go-related gene (hERG) potassium channel (human, UniProt Q12809);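 note: peak tail current of the secondary pulse compared with the same well before compound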
assay explanation: primary screen, population patch clamp on CHO cells stably expressing hERG; higher = less effect of the substance
The whole screen tested about 310,000 compounds, of which about 14,000 (4.5%) showed an effect of 50% or more. The effect is printed as a negative number. This excerpt belongs to a sample that is enriched for strong results.
reported endpoint: hERG current change (%, negative = inhibition) at 10uM (%)
Numbers only; they are read as %.

Some molecules with recorded hERG current change (%, negative = inhibition) at 10uM:
{"columns": ["molecule", "result value"],
 "data": [
  ["CC1CCCCN1C(=O)NC1CC(=O)N(c2ccc3c(c2)OCCO3)C1 (stereo not drawn)", 5.7],
  ["Cc1cc(C)cc(SCc2noc(C(=O)NCCCN3CCOCC3)c2C(=O)NCCCN2CCOCC2)c1", -30.4]
]}

--- query ---
Entry OCC[C@H]1C[C@H](O)[C@@H](O)[C@]2(OCc3ccccc32)O1 has what hERG current change (%, negative = inhibition) at 10uM?
11.9

---

Reported hERG current change (%, negative = inhibition) at 10uM values are given for each entry in this list.
assayed target: human ether-à-go-go-related gene (hERG) potassium channel (human, UniProt Q12809);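 note: peak tail current of the secondary pulse compared with the same well before compound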
assay explanation: primary screen, population patch clamp on CHO cells stably expressing hERG; higher = less effect of the substance
The whole screen tested about 310,000 compounds, of which about 14,000 (4.5%) showed an effect of 50% or more. Effects have a minus sign here. The sample as a whole holds a higher share of strong results than the screen did.
Please state the value followed by its unit.

{"columns": ["compound", "assayed target", "result value"],
 "data": [
  ["CCc1cccc(CC)c1NC(=O)/C(C#N)=C/c1ccccc1C(F)(F)F", "human ether-à-go-go-related gene (hERG) potassium channel (human, UniProt Q12809)", "21.4%"],
  ["C=CCn1c(C)nnc1SCC(=O)Nc1nccs1", "human ether-à-go-go-related gene (hERG) potassium channel (human, UniProt Q12809)", "16.6%"],
  ["O=C1NC2(CCc3ccccc32)C(=O)N1CCOc1ccc(Cl)cc1 (stereo not shown)", "human ether-à-go-go-related gene (hERG) potassium channel (human, UniProt Q12809)", "-29.8%"],
  ["O=C(O)CN1C(=O)/C(=C\\c2cc([N+](=O)[O-])ccc2OCc2ccccc2Cl)SC1=S", "human ether-à-go-go-related gene (hERG) potassium channel (human, UniProt Q12809)", "29.4%"],
  ["CN1c2ccsc2/C(=N/NC(=O)c2c(F)cccc2F)CS1(=O)=O", "human ether-à-go-go-related gene (hERG) potassium channel (human, UniProt Q12809)", "4.31%"],
  ["C=CCN(c1ccc(C(=O)NCCCn2ccnc2)cc1)S(C)(=O)=O", "human ether-à-go-go-related gene (hERG) potassium channel (human, UniProt Q12809)", "12.3%"],
  ["Cc1ccc(-c2cc(-c3ccccc3)cc(-c3ccccc3)[n+]2-c2ccc(C(=O)O)cc2)cc1.[O-][Cl+3]([O-])([O-])[O-]", "human ether-à-go-go-related gene (hERG) potassium channel (human, UniProt Q12809)", "4.17%"],
  ["Brc1ccc(-[n+]2c(-c3ccccc3)cc(-c3ccccc3)cc2-c2ccccc2)cc1.[O-][Cl+3]([O-])([O-])[O-]", "human ether-à-go-go-related gene (hERG) potassium channel (human, UniProt Q12809)", "-73.8%"]
]}

Entry CC(C)(C)NC(=O)CN1C(=O)/C(=C/c2ccccc2)SC1=S has what hERG current change (%, negative = inhibition) at 10uM?
10%

For Cc1cccc2cc(CN(CC3CCCO3)C(=O)c3cccnc3)c3nnnn3c12 (stereo not shown) then?
-5.82%

For CCOC(=O)C1CCN(C(=O)CNC(=O)Cn2c(C)cc3ccccc3c2=O)CC1 then?
6.61%

For O=C(NCCCN1CCCC1=O)c1cc(NS(=O)(=O)c2ccc(F)cc2)cc(NS(=O)(=O)c2ccc(F)cc2)c1 then?
-4.88%

For Nc1cccc(NP(=O)(c2ccccc2)c2ccccc2)c1 then?
11.7%

For O=C(Nc1ncccn1)C1=C(O)c2ccccc2S(=O)(=O)N1Cc1ccccc1 then?
22.8%

For COc1cccc(C2CC(c3cccs3)=NN2S(C)(=O)=O)c1OC (stereo not shown) then?
7.29%

For Cc1ccc(N2C(=O)CC(Sc3cccs3)C2=O)cc1 (stereo not shown) then?
12%

For O=C(NCCO)Nc1ccc2nsnc2c1 then?
-5.93%

For O=C(CN(CCc1ccccc1)C(=O)c1csnn1)NC1CCCC1 then?
-4.71%

For CSc1ncccc1C(=O)NCc1ccccc1Cl then?
-7.25%
